B1: IKZF1 (parent)
chain: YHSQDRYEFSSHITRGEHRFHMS

variants of: B1; experiment: protein stability index of a GFP-peptide fusion (GPS, HEK-293T) (PSI 1-6); higher = more stable; details: c terminus: native;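 further: lentivirally expressed fusions sorted by FACS into six bins by GFP to DsRed ratio, PSI derived from sequencing read proportions per bin multiplied by bin number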
quantity name: protein stability index
Keep the answer to the number alone.

Please review the entries below; each comes with its answer.
Prompt line: For "M22R" , what is its reported protein stability index?
Response line: 1.99

Prompt line: Name the recorded protein stability index for "H2K" .
Response line: 2.01

# ---- query variant ----
Prompt line: Bench note: what protein stability index did "E17P" show?
Response line: 2.04
